Target: UniProt P00742
Sequence (P00742 235-488 limits assumed): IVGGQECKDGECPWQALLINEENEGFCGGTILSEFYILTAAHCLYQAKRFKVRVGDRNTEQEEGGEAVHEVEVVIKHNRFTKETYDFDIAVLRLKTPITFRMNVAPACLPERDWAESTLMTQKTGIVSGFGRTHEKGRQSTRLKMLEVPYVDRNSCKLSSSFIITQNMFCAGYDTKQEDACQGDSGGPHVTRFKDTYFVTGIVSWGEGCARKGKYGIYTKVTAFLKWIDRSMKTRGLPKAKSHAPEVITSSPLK
Sequence (P00742 41-179 limits assumed): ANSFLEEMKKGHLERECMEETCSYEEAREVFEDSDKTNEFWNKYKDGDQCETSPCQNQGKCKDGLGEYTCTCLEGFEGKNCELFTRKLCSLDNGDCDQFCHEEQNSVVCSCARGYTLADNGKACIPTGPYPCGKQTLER
Test: Xa Assay
Conditions: read-out: IC50 or % Inhibition Factor Xa (30 µM); cells given as a plain number (IC50)
quantity.name: IC50

Below: 6 compounds and their reported IC50.
compound	target.or.test.system	quantity.name	measured.value
N=C(N)c1ccc(CNC(=O)Cn2c(-c3cccc(N)c3)c(Cl)nc(NCCc3cccc(Cl)c3)c2=O)cc1	UniProt P00742	IC50	> 30 µM
N=C(N)c1ccc(CNC(=O)Cn2c(-c3cccs3)c(Cl)nc(NCc3ccccc3)c2=O)cc1	UniProt P00742	IC50	> 30 µM
N=C(N)c1ccc(CNC(=O)Cn2c(-c3ccc(F)cc3)c(Cl)nc(NC3CCC3)c2=O)cc1	UniProt P00742	IC50	> 30 µM
N=C(N)c1ccc(CNC(=O)Cn2c(-c3ccccc3)c(Cl)nc(NCCNc3ncccc3C(F)(F)F)c2=O)cc1	UniProt P00742	IC50	> 30 µM
N=C(N)c1ccc(CNC(=O)Cn2c(-c3ccccc3)c(Cl)nc(NC3CCS(=O)(=O)C3)c2=O)cc1 (stereo not shown)	UniProt P00742	IC50	> 30 µM
CC(C)(C)Nc1nc(Cl)c(-c2cccc(N)c2)n(CC(=O)NCc2ccc(C(=N)N)cc2)c1=O [compound 93]	UniProt P00742	IC50	> 30 µM

### Prompt May I ask what IC50 has been recorded for CC(C)C(C)Nc1nc(Cl)c(-c2ccccc2)n(CC(=O)NCc2ccc(C(=N)N)cc2)c1=O (stereo not shown) ?
### Response > 30 µM
